Provide the reported IC50 of each item.
Molecular target: human NaV subtype, like NaV 1.7 (Homo sapiens, UniProt Q15858)
Sequence (Q15858 whole entry): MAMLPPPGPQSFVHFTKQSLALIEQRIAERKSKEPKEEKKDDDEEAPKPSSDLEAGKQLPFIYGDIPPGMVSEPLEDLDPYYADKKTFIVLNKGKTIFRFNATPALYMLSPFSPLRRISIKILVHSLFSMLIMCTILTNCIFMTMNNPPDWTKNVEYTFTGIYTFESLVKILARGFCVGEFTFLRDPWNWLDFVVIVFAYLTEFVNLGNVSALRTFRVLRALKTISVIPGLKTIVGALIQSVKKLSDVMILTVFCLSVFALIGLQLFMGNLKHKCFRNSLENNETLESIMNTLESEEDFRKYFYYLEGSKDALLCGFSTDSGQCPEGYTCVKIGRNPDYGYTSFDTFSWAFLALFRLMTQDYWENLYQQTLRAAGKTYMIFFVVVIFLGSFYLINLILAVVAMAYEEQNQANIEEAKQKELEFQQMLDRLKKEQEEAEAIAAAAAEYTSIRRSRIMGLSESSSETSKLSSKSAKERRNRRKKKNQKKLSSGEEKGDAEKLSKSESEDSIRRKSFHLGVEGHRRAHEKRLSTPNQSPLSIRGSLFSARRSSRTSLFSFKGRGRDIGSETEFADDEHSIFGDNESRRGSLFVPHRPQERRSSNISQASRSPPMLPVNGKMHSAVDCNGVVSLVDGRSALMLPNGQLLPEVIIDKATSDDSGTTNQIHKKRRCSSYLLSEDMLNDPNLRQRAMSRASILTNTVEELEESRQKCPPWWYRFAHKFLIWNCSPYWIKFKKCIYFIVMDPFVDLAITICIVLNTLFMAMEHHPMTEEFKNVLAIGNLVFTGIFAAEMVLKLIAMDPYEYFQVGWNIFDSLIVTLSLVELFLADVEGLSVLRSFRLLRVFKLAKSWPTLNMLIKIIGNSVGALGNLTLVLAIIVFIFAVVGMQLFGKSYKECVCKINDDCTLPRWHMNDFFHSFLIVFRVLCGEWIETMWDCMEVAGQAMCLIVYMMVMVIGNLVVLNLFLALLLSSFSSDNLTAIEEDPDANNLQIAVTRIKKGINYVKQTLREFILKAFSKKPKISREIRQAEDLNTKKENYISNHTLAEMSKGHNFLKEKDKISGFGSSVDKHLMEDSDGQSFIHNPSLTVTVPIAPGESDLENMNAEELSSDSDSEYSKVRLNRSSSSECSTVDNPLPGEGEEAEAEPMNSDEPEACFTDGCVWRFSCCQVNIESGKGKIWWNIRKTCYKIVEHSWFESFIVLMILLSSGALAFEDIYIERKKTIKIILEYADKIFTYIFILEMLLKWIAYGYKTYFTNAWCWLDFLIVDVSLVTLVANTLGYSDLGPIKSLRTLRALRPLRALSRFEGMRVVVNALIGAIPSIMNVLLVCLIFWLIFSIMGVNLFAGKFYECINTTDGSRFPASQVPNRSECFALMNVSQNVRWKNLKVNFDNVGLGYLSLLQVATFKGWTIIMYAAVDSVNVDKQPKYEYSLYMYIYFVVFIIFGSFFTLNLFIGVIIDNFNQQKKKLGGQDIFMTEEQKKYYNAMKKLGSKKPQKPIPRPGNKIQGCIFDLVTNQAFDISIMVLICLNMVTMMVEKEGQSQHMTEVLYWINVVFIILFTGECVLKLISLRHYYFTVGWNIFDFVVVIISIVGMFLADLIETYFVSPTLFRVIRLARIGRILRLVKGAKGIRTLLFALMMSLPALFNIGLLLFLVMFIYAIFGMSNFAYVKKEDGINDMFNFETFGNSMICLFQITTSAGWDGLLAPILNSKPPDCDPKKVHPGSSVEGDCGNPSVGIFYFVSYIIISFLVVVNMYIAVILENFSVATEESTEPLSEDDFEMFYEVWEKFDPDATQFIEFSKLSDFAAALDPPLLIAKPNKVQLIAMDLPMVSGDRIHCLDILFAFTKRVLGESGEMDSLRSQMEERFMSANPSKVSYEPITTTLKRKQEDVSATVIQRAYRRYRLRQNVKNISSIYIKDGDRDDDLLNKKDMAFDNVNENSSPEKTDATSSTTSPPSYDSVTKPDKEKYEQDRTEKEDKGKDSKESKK
Assay: E-VIPR optical membrane potential assay with electrical stimulation
Conditions: active against one or more sodium channels; Table 3 does not name the assay or NaV subtype; read-out: Binned Activity Data (IC50)
Source text: Assays for Detecting and Measuring NaV Inhibition Properties of Compound E-VIPR Optical Membrane Potential Assay Method with Electrical Stimulation Sodium channels are voltage-dependent proteins that can be activated by inducing membrane voltage changes by applying electric fields. The electrical stimulation instrument and methods of use are described in Ion Channel Assay Methods PCT/US01/21652, herein incorporated by reference and are referred to as E-VIPR. […] 7) Read Plate on E-VIPR. […]

compound	IC50
COCCOc1ccc(C(=O)N2CCC3(CC2)c2ccc(C(=O)C(F)(F)F)n2CCN3C)cc1 [Compound 434]	> 5000 nM

Hey, quick one: what's IC50 for each of these?
1. CCOc1ccc(C(=O)N2CCC3(CC2)c2ccc(C(=O)C(F)(F)F)n2CCN3C)cc1C(F)(F)F [Compound 64]
2. CC(C)COc1ccc(C(=O)N2CCC3(CC2)c2ccc(C(=O)C(F)(F)F)n2CCN3C)nc1 [Compound 712]
3. COc1ccc(C(=O)N2CCC3(CC2)c2ccc(C(=O)C(F)(F)F)n2CCN3C)cc1Cl [Compound 697]
4. COc1ccc(C(=O)N2CCC3(CC2)NC(C)(C)Cn2c(C(=O)C(F)(F)F)ccc23)c(F)c1 [Compound 312]
5. CCCOc1ccc(C(=O)N2CCC3(CC2)NCCn2c(C(F)(F)F)ccc23)cc1OC [Compound 550]
6. COc1cc(C(=O)N2CCC3(CC2)c2ccc(C(F)(F)F)n2CCN3C)ccc1O [Compound 407]
7. CN1CCn2c(C(F)(F)F)ccc2C12CCN(C(=O)c1ccc(Oc3ccccc3)cc1)CC2 [Compound 155]

Output:
["≤ 2000 nM", "≤ 2000 nM", "≤ 2000 nM", "≤ 2000 nM", "≤ 2000 nM", "2000 to 5000 nM", "> 5000 nM"]
